The listing below reports pEC50 for compounds tested on Glutamate receptor ionotropic, NMDA 2C (Rattus norvegicus, UniProt P35439+Q00961).
Sequence (Q00961 whole entry, one chain of several): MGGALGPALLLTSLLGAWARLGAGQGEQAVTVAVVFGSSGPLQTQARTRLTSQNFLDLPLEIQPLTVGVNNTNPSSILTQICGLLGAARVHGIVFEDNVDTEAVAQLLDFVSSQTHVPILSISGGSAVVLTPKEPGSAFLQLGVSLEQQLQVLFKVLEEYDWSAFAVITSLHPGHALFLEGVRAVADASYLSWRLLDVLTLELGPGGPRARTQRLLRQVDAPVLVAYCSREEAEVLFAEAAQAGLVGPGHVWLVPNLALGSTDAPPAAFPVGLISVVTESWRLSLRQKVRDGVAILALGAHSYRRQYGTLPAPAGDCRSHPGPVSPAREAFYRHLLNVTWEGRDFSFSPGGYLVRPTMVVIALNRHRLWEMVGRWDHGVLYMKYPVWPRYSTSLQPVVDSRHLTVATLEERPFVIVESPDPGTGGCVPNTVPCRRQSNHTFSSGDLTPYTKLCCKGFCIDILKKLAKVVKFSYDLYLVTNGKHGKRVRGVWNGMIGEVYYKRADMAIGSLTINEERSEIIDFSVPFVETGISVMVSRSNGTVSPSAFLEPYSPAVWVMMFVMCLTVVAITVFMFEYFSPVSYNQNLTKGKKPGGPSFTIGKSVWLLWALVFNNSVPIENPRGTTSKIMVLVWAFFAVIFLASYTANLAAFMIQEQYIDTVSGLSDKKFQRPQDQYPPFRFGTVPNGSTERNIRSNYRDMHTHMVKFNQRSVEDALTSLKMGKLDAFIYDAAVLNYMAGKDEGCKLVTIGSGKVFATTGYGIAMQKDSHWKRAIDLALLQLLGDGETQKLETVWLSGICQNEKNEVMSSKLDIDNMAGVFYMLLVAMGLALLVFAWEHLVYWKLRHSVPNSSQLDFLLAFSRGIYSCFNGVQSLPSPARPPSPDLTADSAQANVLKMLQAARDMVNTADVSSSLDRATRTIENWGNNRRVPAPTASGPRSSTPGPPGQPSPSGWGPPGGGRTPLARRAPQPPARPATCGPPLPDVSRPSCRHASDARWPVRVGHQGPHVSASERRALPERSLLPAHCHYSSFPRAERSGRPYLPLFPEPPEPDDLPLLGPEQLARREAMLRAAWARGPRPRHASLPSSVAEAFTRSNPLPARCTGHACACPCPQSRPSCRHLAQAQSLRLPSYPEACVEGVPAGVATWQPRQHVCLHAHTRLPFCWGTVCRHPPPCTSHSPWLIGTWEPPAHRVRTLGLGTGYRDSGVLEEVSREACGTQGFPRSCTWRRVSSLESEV
pEC50: −log10 of the molar value.
MEASURED PARAMETER: pEC50

[
  {
    "SMILES REPRESENTATION": "Cc1sc2ncn(CC(=O)N3CCC(F)(F)C3)c(=O)c2c1-c1cccc(Br)c1",
    "READING": 5.17
  },
  {
    "SMILES REPRESENTATION": "CC1(F)CN(C(=O)Cn2cnc3sc(C(F)(F)F)c(-c4ccc(F)c(Br)c4)c3c2=O)C1",
    "READING": 5.49
  },
  {
    "SMILES REPRESENTATION": "CC1(F)CN(C(=O)Cn2cnc3scc(-c4ccc(F)c(Br)c4)c3c2=O)C1",
    "READING": 6.06
  },
  {
    "SMILES REPRESENTATION": "Cc1sc2ncn(CC(=O)N3CC(C)(F)C3)c(=O)c2c1-c1cc(F)cc(Cl)c1",
    "READING": 5.03
  },
  {
    "SMILES REPRESENTATION": "Cc1sc2ncn(CC(=O)N3CC(C)(F)C3)c(=O)c2c1-c1ccc(F)c(Br)c1",
    "READING": 6.20
  },
  {
    "SMILES REPRESENTATION": "C#Cc1sc2ncn(CC(=O)N3CC(C)(F)C3)c(=O)c2c1-c1ccc(F)c(Br)c1",
    "READING": 6.09
  },
  {
    "SMILES REPRESENTATION": "Cc1sc2ncn(CC(=O)N3CC(C)(F)C3)c(=O)c2c1-c1cccc(C(F)(F)F)c1",
    "READING": 5.66
  },
  {
    "SMILES REPRESENTATION": "Cc1sc2ncn(CC(=O)N3CC(C)(F)C3)c(=O)c2c1-c1ccc(Cl)c(Cl)c1",
    "READING": 6.07
  },
  {
    "SMILES REPRESENTATION": "Cc1sc2ncn(CC(=O)N3CC(C)(F)C3)c(=O)c2c1-c1ccc(F)c(OC(C)C)c1",
    "READING": 5.28
  },
  {
    "SMILES REPRESENTATION": "Cc1sc2ncn(CC(=O)N3CC(C)(F)C3)c(=O)c2c1-c1cccc(Br)c1",
    "READING": 5.70
  },
  {
    "SMILES REPRESENTATION": "Cc1sc2ncn(CC(=O)N3CC(C)(C)C3)c(=O)c2c1-c1cccc(Br)c1",
    "READING": 5.28
  }
]

---

The listing below reports pEC50 for molecules tested on Glutamate receptor ionotropic, NMDA 2D (Rattus norvegicus, UniProt P35439+Q62645).
Sequence (Q62645 whole entry, one chain of several): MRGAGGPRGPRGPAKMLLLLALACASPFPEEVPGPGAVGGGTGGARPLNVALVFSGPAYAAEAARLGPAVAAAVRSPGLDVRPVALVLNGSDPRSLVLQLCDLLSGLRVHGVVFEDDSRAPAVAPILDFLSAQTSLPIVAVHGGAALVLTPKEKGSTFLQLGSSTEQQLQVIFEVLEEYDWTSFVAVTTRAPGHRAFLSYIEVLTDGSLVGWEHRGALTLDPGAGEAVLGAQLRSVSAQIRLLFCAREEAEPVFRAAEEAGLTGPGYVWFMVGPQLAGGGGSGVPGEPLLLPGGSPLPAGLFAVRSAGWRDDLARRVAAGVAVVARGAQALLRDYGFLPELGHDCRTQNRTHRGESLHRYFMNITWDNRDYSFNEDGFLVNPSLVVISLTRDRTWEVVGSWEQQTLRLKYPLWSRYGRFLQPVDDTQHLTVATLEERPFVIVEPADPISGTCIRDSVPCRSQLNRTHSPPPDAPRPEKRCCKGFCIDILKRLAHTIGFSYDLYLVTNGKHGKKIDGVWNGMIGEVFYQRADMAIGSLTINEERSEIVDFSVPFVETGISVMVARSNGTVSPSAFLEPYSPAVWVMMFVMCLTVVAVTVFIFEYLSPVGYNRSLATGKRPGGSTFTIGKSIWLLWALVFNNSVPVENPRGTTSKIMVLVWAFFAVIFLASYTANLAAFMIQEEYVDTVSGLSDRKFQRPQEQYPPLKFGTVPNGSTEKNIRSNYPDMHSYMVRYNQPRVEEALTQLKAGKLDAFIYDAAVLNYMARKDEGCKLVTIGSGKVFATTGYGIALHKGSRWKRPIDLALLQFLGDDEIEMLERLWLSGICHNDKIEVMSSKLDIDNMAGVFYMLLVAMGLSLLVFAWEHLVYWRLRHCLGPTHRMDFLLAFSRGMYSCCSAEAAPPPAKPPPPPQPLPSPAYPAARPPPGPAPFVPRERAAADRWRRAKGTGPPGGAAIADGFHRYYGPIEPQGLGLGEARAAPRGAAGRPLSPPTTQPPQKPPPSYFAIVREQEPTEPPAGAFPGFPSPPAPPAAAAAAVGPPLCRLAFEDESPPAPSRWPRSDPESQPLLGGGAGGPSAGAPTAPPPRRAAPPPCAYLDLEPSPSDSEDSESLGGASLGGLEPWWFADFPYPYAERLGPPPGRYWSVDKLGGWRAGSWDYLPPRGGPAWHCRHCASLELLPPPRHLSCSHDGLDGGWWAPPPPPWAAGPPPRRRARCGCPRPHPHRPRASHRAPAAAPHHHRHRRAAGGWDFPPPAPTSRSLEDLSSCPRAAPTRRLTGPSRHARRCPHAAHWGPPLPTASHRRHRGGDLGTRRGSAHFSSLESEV
pEC50: −log10 of the molar value.

[
  {
    "SMILES REPRESENTATION": "Cc1sc2ncn(CC(=O)N3CC(C)(F)C3)c(=O)c2c1-c1ccc(F)c(Cl)c1",
    "pEC50": 5.68
  },
  {
    "SMILES REPRESENTATION": "Cc1sc2ncn(CC(=O)N3CCC(F)(F)C3)c(=O)c2c1-c1cccc(Br)c1",
    "pEC50": 4.93
  },
  {
    "SMILES REPRESENTATION": "Cc1sc2ncn(CC(=O)N3CC(C)(F)C3)c(=O)c2c1-c1cc(Cl)ccc1F",
    "pEC50": 5.35
  },
  {
    "SMILES REPRESENTATION": "CC1(F)CN(C(=O)Cn2cnc3scc(-c4ccc(F)c(Br)c4)c3c2=O)C1",
    "pEC50": 5.68
  },
  {
    "SMILES REPRESENTATION": "Cc1sc2ncn(CC(=O)N3CC(C)(F)C3)c(=O)c2c1-c1ccc(F)c(Br)c1",
    "pEC50": 5.96
  },
  {
    "SMILES REPRESENTATION": "CC1(F)CN(C(=O)Cn2cnc3sc(C#N)c(-c4ccc(F)c(Br)c4)c3c2=O)C1",
    "pEC50": 6.05
  },
  {
    "SMILES REPRESENTATION": "Cc1sc2ncn(CC(=O)N3CC(C)(F)C3)c(=O)c2c1-c1cccc(OC(F)(F)F)c1",
    "pEC50": 5.38
  },
  {
    "SMILES REPRESENTATION": "CCc1sc2ncn(CC(=O)N3CC(C)(F)C3)c(=O)c2c1-c1ccc(F)c(Br)c1",
    "pEC50": 5.33
  },
  {
    "SMILES REPRESENTATION": "CC1(F)CN(C(=O)Cn2cnc3sc(C(F)(F)F)c(-c4ccc(F)c(Br)c4)c3c2=O)C1",
    "pEC50": 5.21
  },
  {
    "SMILES REPRESENTATION": "Cc1sc2ncn(CC(=O)N3CC(C)(F)C3)c(=O)c2c1-c1cccc(C(F)(F)F)c1",
    "pEC50": 5.42
  }
]
